meta.source: ChEMBL document CHEMBL3813694

- System: WiDr
- experimentalDetails: Cytotoxicity against human WiDr cells assessed as reduction in cell proliferation after 24 hrs by sulforhodamine B assay
- Format: functional, cell-based
IC50 overview
Write it as a number; the unit µM goes unstated.

Guide cases for IC50, answers given:
> print(dat)
                                   molecule  displayunit  result
1  CCCCCCNC(=O)/C=C/c1ccc(O)c(O)c1 [CAFFEOYLHEXYLAMIDE]           µM    56.1
2        CCCCCCNC(=O)/C=C/c1cc(O)c(O)c(O)c1           µM    71.4

Now turn to the next molecule.
Incoming: Quick one: IC50 of CCCCCCNC(=O)/C=C/c1ccc(O)c(OC)c1 [FERULOYLHEXYLAMIDE] ?
Outgoing: 84.9
